System: Aureobasidium pullulan
Assay: MIC in malt yeast agar, Aureobasidium pullulan
Format: cell-based, Aureobasidium pullulan (ATCC 16622)
Settings: Ap; malt yeast agar; 30° C.; 72 hours for fungi; read-out: Minimum Inhibitory Concentration (MIC)
Property: MIC; scope: individual compounds

// below: answered compounds
compound	MIC
N#CSCSc1nsnc1Cl [Example 3]	< 10 µg/mL
COc1nsnc1OCSC#N [Example 7]	< 10 µg/mL
N#CSCSc1nsnc1SCSC#N [Example 4]	< 2.5 µg/mL
N#CSCCSc1nsnc1SCCSC#N [Example 5]	< 10 µg/mL
N#CSCOc1nsnc1OCSC#N [Example 8]	< 10 µg/mL
N#CSc1nsnc1SC#N [Example 2, Bis(thiocyanato)-1,2,5-thiadiazole]	< 1 µg/mL

As a next step, examine the compound that follows.
input: Return MIC measured with Aureobasidium pullulan given this compound: N#CSCOc1nsnc1Cl [Example 6]
output: < 10 µg/mL
